Assay: Aqueous stability assay (HPLC, pseudo first-order half-life)
Format: physicochemical
Settings: DPBS pH 7.0-7.3, 1 mg/mL, room temperature
Parameter Measured: PBS t1/2 (h)
The reply should be a number in h, with the unit left off.

For orientation, consider the following solved cases.
Molecule	Parameter Measured	Assay Result
C/C(=N\OC(=O)N(CCN)CCN)[C@H]1CC[C@H]2[C@@H]3CCC4=CC(=O)CC[C@]4(C)[C@H]3CC[C@]12C.O=C(O)C(F)(F)F.O=C(O)C(F)(F)F [53j]	PBS t1/2	10.13
CNCCN(C(=O)O/N=C(\C)[C@H]1CC[C@H]2[C@@H]3CCC4=CC(=O)CC[C@]4(C)[C@H]3CC[C@]12C)C1CC1.O=C(O)C(F)(F)F [53b]	PBS t1/2	28.16

Could you now consider this next molecule?
[Q] Suppose we examine the molecule CNCCN(C(=O)O/N=C(\C)[C@H]1CC[C@H]2[C@@H]3CCC4=CC(=O)CC[C@]4(C)[C@H]3CC[C@]12C)C1CCCC1.O=C(O)C(F)(F)F [53d] ; what PBS t1/2 value has been reported?
[A] 10.70

* * *

Test: Nephelometry (aqueous solubility)
Format: physicochemical
Details: DPBS with 1% DMSO, aqueous buffer, kinetic from dmso stock, DPBS pH 7.0-7.3, 1% DMSO, 25° C.
Where a name gives a salt, the structure may show the parent alone.
Parameter Measured: solubility at 90 min

[Q] Query: solubility at 90 min; subject: CNCCN(C(=O)O/N=C(\C)[C@H]1CC[C@H]2[C@@H]3CCC4=CC(=O)CC[C@]4(C)[C@H]3CC[C@]12C)C1CCC1.O=C(O)C(F)(F)F [53c]
[A] > 750 µM

[Q] What does the data say about its solubility at 90 min? Entry: CNCCN(CCO)C(=O)O/N=C(\C)[C@H]1CC[C@H]2[C@@H]3CCC4=CC(=O)CC[C@]4(C)[C@H]3CC[C@]12C [32c]
[A] > 500 µM

[Q] Any idea what its solubility at 90 min is? The compound is C/C(=N\OC(=O)NCCN)[C@H]1CC[C@H]2[C@@H]3CCC4=CC(=O)CC[C@]4(C)[C@H]3CC[C@]12C [32a, hydrochloride]
[A] > 750 µM

* * *

Assay: Aqueous stability assay (HPLC, pseudo first-order half-life)
Format: physicochemical
Settings: DPBS pH 7.0-7.3, 1 mg/mL, room temperature
Structures can show the parent of a compound that is named as a salt.
Parameter Measured: PBS t1/2 (h)
Express the result in h but write the number alone.

Compound	Units Of Measure	PBS t1/2
CNCCN(C)C(=O)O/N=C(\C)[C@H]1CC[C@H]2[C@@H]3CCC4=CC(=O)CC[C@]4(C)[C@H]3CC[C@]12C [32b, hydrochloride]	h	46.9

[Q] Fill blank: measured PBS t1/2 of the compound CNCCN(CCNC)C(=O)O/N=C(\C)[C@H]1CC[C@H]2[C@@H]3CCC4=CC(=O)CC[C@]4(C)[C@H]3CC[C@]12C.Cl.Cl [53i] is ____.
[A] 1.51

[Q] Quick one: PBS t1/2 for CNCCN(C(=O)O/N=C(\C)[C@H]1CC[C@H]2[C@@H]3CCC4=CC(=O)CC[C@]4(C)[C@H]3CC[C@]12C)C1CCC1.O=C(O)C(F)(F)F [53c] ?
[A] 11.79

[Q] If you can, please state the reported PBS t1/2 value of CNCCN(C(=O)O/N=C(\C)[C@H]1CC[C@H]2[C@@H]3CCC4=CC(=O)CC[C@]4(C)[C@H]3CC[C@]12C)C(C)C.O=C(O)C(F)(F)F [53a] .
[A] 19.72

[Q] Would you mind telling me what PBS t1/2 value was observed for C/C(=N\OC(=O)N(CCO)CCNCCO)[C@H]1CC[C@H]2[C@@H]3CCC4=CC(=O)CC[C@]4(C)[C@H]3CC[C@]12C.Cl [54d] ?
[A] 28.79

[Q] So what's the measured PBS t1/2 for this one? CNCCN(CCN(C)C)C(=O)O/N=C(\C)[C@H]1CC[C@H]2[C@@H]3CCC4=CC(=O)CC[C@]4(C)[C@H]3CC[C@]12C.O=C(O)C(F)(F)F [53f]
[A] 2.17

All values here come from patent US20250034200A1.
